Cited source for all entries: PubChem BioAssay AID1159580

For each of the compounds below, state its normalized growth.
TEST NAME: chemical genetic growth profiling, strain panel (AID 1159580);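 also: tested at 20 µM; growth read once vehicle control cultures reached saturation at 30 °C; 1 = growth at the plate median or of vehicle wells; lower values mean less growth of the strain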
PROTOCOL CONDITIONS: S. cerevisiae deletion strains, growth OD, locus YNL209W, strain ssb2, stronger effect = lower value
In all, about 5,500 compounds went through this assay and about 2,000 (36%) were called active. Roughly 18% stayed inconclusive and do not appear here. The list shows a part of the results.
Answers are plain numbers.

COMPOUND | normalized growth
COc1ccc2c(C)cc(=O)oc2c1 | 1
CC1=C(/C=C/C(C)=C/C=C/C(C)=C/C=C/C=C(C)/C=C/C=C(C)/C=C/C2=C(C)C(=O)CCC2(C)C)C(C)(C)CCC1=O | 0.991
CC1=C(CC(=O)O)c2cc(F)ccc2/C1=C\c1ccc(S(C)=O)cc1 (stereo not given) | 1.02
NCC1CCC(C(=O)O)CC1 (stereo not given) | 1.02
O=C(O)c1c2ccccc2cc2ccccc12 | 1

Parameters: items (list). Returns: normalized growth for each item.
1. Cc1cc(O)c(C)c(O)c1C(=O)O
2. O=C(O)c1cc2ccccc2c(Cc2c(O)c(C(=O)O)cc3ccccc23)c1O
3. COc1ccc2c(c1)OCc1c-2oc2cc(OC)ccc12
4. CC1CC2C3CCC4=CC(=O)C=C[C@]4(C)[C@@]3(F)[C@@H](O)C[C@]2(C)[C@@]1(O)C(=O)CO (stereo not given in full)
5. CC1=C(C(C)O)C2=NC1C=c1[nH]c(c(C)c1C(C)O)=Cc1[nH]c(c(CCC(=O)O)c1C)C=c1[nH]c(c(C)c1CCC(=O)O)=C2 (stereo not given)

Result block:
1: 0.986; 2: 1; 3: 0.965; 4: 0.98; 5: 0.999

###

TEST NAME: chemical genetic growth profiling, strain panel (AID 1159580);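 also: tested at 20 µM; growth read once vehicle control cultures reached saturation at 30 °C; 1 = growth at the plate median or of vehicle wells; lower values mean less growth of the strain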
PROTOCOL CONDITIONS: S. cerevisiae deletion strains, growth OD, locus YNL128W, strain TEP1, stronger effect = lower value
About 2,000 (36%) of roughly 5,500 compounds were called active. Not shown: some 18% with an inconclusive outcome. The list shows a part of the results.
MEASURED METRIC: normalized growth
Give bare numbers.

Parameters: items (list). Returns: normalized growth for each item.
1. COc1ccc2c(c1OC)C(=O)O[C@@H]2[C@H]1c2cc3c(cc2CCN1C)OCO3
2. CCOC(=O)c1c(C)cc(O)c(C=O)c1O
3. CCC(C)C(OC(C)=O)C(=O)OC1C(O)C2C3(C)C=CC(=O)C(C)(C)C3CC(OC(=O)C(O)C(C)C)C2(C)C23OC2CC(c2ccoc2)C13C (stereo unspecified)
4. CC(C)(O)[C@@H]1[C@H]2OC(=O)[C@@H]1[C@]1(O)C[C@H]3O[C@]34C(=O)O[C@H]2[C@]14C
5. CC(C)OC(=O)C(C)(C)Oc1ccc(C(=O)c2ccc(Cl)cc2)cc1
6. CCCc1cc(=O)c2ccc(O)cc2o1

Result block:
[1.02, 0.237, 1.01, 1.03, 1.01, 0.97]

Parameters: items (list). Returns: normalized growth for each item.
1. CCOC(=O)[C@H](CCc1ccccc1)N[C@H]1CCc2ccccc2N(CC(=O)O)C1=O
2. CN1CCCN=C1COC(=O)C(O)(c1ccccc1)C1CCCCC1 (stereo unspecified)
3. COCCc1ccc(OCC(O)CNC(C)C)cc1 (stereo unspecified)

Result block:
1: 0.984; 2: 1.01; 3: 1.01
